Test system: Jurkat FADD-/- TNF-alpha necroptosis, CellTiter-Glo ATP, 24 h
Experiment: inhibitors of TNF-alpha triggered necroptosis, potency, dose response, cell-based, Jurkat FADD-/-, duplicate IC50 (AID 463178)
Activity calls are given as the source filed them.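 The calls were made as follows: active = IC50 below a set limit in both duplicate runs and mean IC50 below a set limit; inconclusive = IC50 above a set limit in only one run; inactive = IC50 above a set limit in both runs and mean.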
Result category, one only: yes (1) (active), no (0) (inactive)

Solved entries:
INSERT INTO results (compound, label_value) VALUES
  ('O=[N+]([O-])c1ccc(Nc2cccc(F)c2)nc1', 'yes (1)'),
  ('COc1ccc(/C=N/Nc2nc3ccccc3s2)cc1O', 'no (0)'),
  ('O=[N+]([O-])c1ncn(Cc2c(Cl)cccc2Cl)n1', 'yes (1)'),
  ('OC(c1ccccc1)c1nc2ccccc2s1 (stereo unspecified)', 'yes (1)'),
  ('Fc1ccc(C2=NNC(=NCc3ccccc3)SC2)cc1F', 'no (0)');

Input line: Could you check what this test reported for CN(CC1CCCO1)S(=O)(=O)c1ccc(C(=O)Nc2nccs2)cc1 (stereo unspecified) ?
Output line: yes (1)

---

System: Jurkat FADD-/- TNF-alpha necroptosis, CellTiter-Glo ATP, 24 h
Assay: inhibitors of TNF-alpha triggered necroptosis, potency, dose response, cell-based, Jurkat FADD-/-, duplicate IC50 (AID 463178)
Active and inactive are the calls of the source.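 The calls were made as follows: active = IC50 below a set limit in both duplicate runs and mean IC50 below a set limit; inconclusive = IC50 above a set limit in only one run; inactive = IC50 above a set limit in both runs and mean.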
The categories you may choose from are y = active, n = inactive

Use these answered entries as a reference point.
INSERT INTO assay_data (compound, label_value) VALUES
  ('O=C(NCc1c(Cl)cccc1Cl)c1ccc2nnsc2c1', 'n'),
  ('Cc1nn(Cc2ccccc2)c(N)c1C#N', 'y'),
  ('CC(=O)OC(C(=O)NC1CCCCC1)c1ccc(Cl)c(Cl)c1 (configuration not stated)', 'n'),
  ('Cc1nc2oc3ccccc3c(=O)c2c(=O)n1Cc1ccccc1', 'y'),
  ('COC(C(=O)Nc1ccccc1F)c1ccccc1 (configuration not stated)', 'y'),
  ('CC(=O)Nc1ccn(Cc2c(F)cccc2Cl)n1', 'y');

Input line: Please state the recorded outcome for this compound: Cc1cnc(NC(=O)C2(c3ccccc3)CC2)s1
Output line: n

Input line: Please state the recorded outcome for this compound: O=[N+]([O-])c1ccc(Nc2ccccc2F)nc1
Output line: y

Input line: Check the results log: what was the call for Cc1nn(Cc2c(F)cccc2Cl)c(C)c1[N+](=O)[O-] ?
Output line: n

Input line: Short answer needed: outcome of this test for C/C(Cl)=C/CN1C(=O)C2C3C=CC(C3)C2C1=O (configuration not stated) ?
Output line: y

Input line: Given O=C(Nc1ccc(Cl)cn1)C1COc2ccccc2O1 (configuration not stated) , state the outcome it received in this test.
Output line: n

---

Tested on: Jurkat FADD-/- TNF-alpha necroptosis, CellTiter-Glo ATP, 24 h
Test: inhibitors of TNF-alpha triggered necroptosis, potency, dose response, cell-based, Jurkat FADD-/-, duplicate IC50 (AID 463178)
Activity calls are given as the source filed them.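 How the source made its calls: active means IC50 below a set limit in both duplicate runs and mean IC50 below a set limit; inconclusive means IC50 above a set limit in only one run; inactive means IC50 above a set limit in both runs and mean.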
// classify into T for active, F for inactive

Would you please look over these solved cases?
INSERT INTO assay_data (molecule, label_value) VALUES
  ('CC(=O)N(CC1CCCO1)c1nnc(-c2cnccn2)s1 (stereo not given)', 'T'),
  ('COC(C(=O)Nc1ccc(F)c(F)c1)c1ccccc1 (stereo not given)', 'T'),
  ('Fc1ccc(NC(=S)N2N=CCC2c2ccccc2)cc1 (stereo not given)', 'T'),
  ('Cc1ccc(CC(=O)Nc2ncc([N+](=O)[O-])s2)cc1', 'F'),
  ('COc1ccc(NC(=O)C(OC)c2ccccc2)cc1Cl (stereo not given)', 'T'),
  ('c1ccc(CSc2nnc(-c3ccco3)o2)cc1', 'T'),
  ('O=C(COc1ccccc1Cl)NC(=O)NC1CCCC1', 'T'),
  ('Cc1ccc(C2CC(=O)NC(SCC(=O)Nc3nccs3)=C2C#N)cc1 (stereo not given)', 'F'),
  ('O=C(O)c1ccc(/C=N/Nc2ccc(C(F)(F)F)cn2)cc1', 'T');

Input line: Tell me the assay call for O=C1CC(c2ccccc2)C(=O)N1c1cccc(O)c1 (stereo not given) please.
Output line: T
